- measurement-target: T1, mouse αvβ1 integrin on CHOK1 stable cells (mouse, UniProt P43406 31-1044; P09055 21-798)
- T1 construct: whole, on cells; Stably expressed on CHOK1 cells; the adhesion assay used the line with the hamster α5 gene knocked out (CHOK1-α5KO-mαvβ1); also called mαvβ1; CHOK1-mouse αvβ1
- T1 sequence (P43406 31-1044, chain 1 of 2): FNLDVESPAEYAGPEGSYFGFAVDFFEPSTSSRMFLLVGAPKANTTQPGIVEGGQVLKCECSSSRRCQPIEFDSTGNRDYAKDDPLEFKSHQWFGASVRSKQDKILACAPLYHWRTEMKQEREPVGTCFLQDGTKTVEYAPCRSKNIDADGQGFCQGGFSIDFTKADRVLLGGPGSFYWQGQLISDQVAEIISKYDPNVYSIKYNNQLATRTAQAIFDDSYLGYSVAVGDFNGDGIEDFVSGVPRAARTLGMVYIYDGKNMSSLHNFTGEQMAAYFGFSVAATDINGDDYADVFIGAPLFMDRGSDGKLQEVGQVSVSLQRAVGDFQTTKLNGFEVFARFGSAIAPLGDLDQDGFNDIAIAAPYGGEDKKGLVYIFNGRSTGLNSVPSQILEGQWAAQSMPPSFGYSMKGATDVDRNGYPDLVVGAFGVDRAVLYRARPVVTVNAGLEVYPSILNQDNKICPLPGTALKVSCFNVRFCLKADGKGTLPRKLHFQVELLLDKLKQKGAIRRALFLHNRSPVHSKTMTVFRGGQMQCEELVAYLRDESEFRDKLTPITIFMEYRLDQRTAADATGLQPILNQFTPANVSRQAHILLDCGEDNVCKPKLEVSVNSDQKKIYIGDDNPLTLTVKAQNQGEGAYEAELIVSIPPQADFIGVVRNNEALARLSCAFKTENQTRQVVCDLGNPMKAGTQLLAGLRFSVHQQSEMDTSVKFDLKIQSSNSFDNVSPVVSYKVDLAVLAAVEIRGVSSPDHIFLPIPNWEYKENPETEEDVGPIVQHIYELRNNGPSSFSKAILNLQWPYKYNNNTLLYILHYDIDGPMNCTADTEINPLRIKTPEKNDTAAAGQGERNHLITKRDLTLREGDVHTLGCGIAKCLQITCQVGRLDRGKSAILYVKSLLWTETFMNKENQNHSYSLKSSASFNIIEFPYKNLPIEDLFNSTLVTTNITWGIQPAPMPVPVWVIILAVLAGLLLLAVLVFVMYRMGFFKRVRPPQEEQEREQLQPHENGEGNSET
- T1 sequence (P09055 21-798, chain 2 of 2): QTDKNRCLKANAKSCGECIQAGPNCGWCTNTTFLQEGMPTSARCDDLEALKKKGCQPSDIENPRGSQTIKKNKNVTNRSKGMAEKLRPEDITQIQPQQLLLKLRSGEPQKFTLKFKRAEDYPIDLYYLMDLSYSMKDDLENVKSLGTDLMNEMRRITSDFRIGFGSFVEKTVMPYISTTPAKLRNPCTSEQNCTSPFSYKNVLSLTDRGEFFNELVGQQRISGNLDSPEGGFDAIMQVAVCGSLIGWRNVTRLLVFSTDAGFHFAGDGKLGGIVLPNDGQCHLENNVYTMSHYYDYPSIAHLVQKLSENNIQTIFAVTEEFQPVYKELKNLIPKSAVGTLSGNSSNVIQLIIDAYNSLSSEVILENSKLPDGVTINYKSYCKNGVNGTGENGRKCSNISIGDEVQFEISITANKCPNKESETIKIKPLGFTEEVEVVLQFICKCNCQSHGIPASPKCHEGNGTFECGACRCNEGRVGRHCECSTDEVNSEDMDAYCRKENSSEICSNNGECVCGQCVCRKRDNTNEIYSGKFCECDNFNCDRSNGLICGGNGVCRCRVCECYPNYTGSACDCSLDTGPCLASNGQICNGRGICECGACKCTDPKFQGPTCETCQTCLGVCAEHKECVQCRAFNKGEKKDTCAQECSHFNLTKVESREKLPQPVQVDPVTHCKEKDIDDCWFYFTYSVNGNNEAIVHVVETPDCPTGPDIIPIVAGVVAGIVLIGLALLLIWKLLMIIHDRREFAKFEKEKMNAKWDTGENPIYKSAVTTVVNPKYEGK
- assay: cell-based ELISA (CELISA), CHOK1 cells expressing the integrin
observation-type: EC50 (nM)
Hi! Could you send only the number? It should be in nM, unit omitted.

Consider the reported EC50 for these binders:
Ab-32 (antibody, V domains shown) VH: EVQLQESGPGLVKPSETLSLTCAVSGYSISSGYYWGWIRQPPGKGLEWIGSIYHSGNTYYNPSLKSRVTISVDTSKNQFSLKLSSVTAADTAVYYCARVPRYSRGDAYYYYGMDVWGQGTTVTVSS VL: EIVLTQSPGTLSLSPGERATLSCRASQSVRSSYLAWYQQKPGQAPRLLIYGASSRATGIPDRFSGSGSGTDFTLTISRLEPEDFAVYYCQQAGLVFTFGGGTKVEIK: 0.609
Ab-29 (antibody, V domains shown) VH: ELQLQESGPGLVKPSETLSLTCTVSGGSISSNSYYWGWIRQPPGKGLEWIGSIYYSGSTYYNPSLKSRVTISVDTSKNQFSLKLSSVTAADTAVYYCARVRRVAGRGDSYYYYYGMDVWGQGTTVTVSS VL: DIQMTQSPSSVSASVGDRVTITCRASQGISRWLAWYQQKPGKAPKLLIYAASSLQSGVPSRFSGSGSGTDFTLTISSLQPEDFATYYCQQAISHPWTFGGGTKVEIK: 1.09

Entry Ab-31 (antibody, V domains shown) VH: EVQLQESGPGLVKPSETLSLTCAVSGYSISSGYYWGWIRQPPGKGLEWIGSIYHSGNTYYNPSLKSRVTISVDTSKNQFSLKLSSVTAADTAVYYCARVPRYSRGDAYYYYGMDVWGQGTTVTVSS VL: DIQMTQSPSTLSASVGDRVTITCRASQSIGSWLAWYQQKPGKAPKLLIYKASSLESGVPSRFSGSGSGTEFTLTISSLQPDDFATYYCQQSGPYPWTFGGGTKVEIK has what EC50? 0.743

# repeat for Ab-33 (antibody, V domains shown) VH: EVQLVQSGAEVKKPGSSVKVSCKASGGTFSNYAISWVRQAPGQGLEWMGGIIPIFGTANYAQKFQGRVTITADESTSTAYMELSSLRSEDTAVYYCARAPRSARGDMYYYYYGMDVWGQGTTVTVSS VL: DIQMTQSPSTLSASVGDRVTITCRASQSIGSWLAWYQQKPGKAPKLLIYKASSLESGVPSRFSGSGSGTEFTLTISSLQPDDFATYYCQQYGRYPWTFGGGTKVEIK 2.84

# iterate: Ab-30 (antibody, V domains shown) VH: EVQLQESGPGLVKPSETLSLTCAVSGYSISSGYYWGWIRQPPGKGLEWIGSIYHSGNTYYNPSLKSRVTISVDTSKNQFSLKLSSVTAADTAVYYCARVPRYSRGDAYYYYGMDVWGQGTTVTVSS VL: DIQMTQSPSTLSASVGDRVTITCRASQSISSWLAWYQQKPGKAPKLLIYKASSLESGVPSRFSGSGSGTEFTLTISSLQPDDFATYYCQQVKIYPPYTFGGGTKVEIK 0.593
